Exercise: for every item that follows, state its recorded koff.
target: T1, human C-MET His tagged, monomeric (human, UniProt P08581 25-932); assay: SPR Biacore, IgG captured, monomeric C-MET-His analyte
T1 construct: also called monomeric human C-MET; biotinylated human C-MET-His
T1 sequence (P08581 25-932): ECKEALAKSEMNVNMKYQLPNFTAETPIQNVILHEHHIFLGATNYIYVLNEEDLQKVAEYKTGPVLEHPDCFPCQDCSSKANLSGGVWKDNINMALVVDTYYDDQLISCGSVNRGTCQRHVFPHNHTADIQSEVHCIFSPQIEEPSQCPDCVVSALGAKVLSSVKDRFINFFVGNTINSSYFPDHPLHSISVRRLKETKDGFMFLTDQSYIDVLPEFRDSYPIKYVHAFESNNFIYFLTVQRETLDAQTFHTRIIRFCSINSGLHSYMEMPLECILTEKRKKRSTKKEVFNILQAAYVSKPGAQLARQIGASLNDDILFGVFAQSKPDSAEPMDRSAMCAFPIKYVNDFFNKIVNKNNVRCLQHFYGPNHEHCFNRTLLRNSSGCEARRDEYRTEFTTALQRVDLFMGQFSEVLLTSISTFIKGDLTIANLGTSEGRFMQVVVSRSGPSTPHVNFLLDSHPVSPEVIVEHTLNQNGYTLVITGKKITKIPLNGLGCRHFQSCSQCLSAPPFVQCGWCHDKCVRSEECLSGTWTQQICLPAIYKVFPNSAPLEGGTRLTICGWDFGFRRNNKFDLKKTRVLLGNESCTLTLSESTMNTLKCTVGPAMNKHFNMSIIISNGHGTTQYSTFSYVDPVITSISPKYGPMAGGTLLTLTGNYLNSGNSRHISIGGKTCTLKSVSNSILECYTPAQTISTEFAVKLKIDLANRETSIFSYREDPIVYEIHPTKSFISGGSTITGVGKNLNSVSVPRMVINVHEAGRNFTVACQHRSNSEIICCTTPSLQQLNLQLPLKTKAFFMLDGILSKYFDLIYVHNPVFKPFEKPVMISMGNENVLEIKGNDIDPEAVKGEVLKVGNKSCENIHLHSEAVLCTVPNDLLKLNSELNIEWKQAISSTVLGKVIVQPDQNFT
# output: bare number, implied unit s⁻¹

Lab note: MH11 (antibody, IgG4, V domains shown) VH: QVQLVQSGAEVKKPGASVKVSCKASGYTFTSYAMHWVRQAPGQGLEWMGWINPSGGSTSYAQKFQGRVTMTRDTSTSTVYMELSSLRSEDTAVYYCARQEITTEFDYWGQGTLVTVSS VL: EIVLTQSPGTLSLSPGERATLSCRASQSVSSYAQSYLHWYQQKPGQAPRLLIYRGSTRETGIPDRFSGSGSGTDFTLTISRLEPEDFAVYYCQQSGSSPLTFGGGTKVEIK gave koff of 0.00016

Lab note: MH4 (antibody, IgG4, V domains shown) VH: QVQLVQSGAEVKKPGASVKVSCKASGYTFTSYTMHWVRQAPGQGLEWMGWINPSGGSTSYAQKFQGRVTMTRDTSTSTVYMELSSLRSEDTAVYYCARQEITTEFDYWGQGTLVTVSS VL: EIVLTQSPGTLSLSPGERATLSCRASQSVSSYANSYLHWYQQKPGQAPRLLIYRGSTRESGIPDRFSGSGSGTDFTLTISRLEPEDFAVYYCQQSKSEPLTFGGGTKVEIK gave koff of 2.5e-05

Lab note: MH7-1 (antibody, human IgG4, V domains shown) VH: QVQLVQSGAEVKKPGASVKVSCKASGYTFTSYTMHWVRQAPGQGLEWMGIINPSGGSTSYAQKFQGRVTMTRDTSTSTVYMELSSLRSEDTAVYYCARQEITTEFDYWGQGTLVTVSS VL: EIVLTQSPGTLSLSPGERATLSCRASQSVSSYANSYLHWYQQKPGQAPRLLIYRGSTRETGIPDRFSGSGSGTDFTLTISRLEPEDFAVYYCQQSKSEPLTFGGGTKVEIK gave koff of 0.000151

Lab note: 08B12 (antibody, IgG4, V domains shown) VH: QVQLVQSGAEVKKPGASVKVSCKASGYIFTAYSMHWVRQAPGQGLEWMGWIKPNNGSTNYAQKFQGRVTMTRDTSTSTVYMELSSLRSEDTAVYYCARTEITTEFDYWGQGTLVTVSS VL: EIVLTQSPGTLSLSPGERATLSCRASQSVDSYANSYLHWYQQKPGQAPRLLIYRGSTRETGIPDRFSGSGSGTDFTLTISRLEPEDFAVYYCQQSKSDPLTFGGGTKVEIK gave koff of 0.00031

Lab note: MH7-3 (antibody, human IgG4, V domains shown) VH: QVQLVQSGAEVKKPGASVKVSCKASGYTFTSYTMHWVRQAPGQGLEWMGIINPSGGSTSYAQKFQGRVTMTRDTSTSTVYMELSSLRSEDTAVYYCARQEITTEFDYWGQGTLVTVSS VL: EIVLTQSPGTLSLSPGERATLSCRASQSVSSYAQSYLHWYQQKPGQAPRLLIYRGSTRETGIPDRFSGSGSGTDFTLTISRLEPEDFAVYYCQQSKESPLTFGGGTKVEIK gave koff of 0.000123

Lab note: MH1 (antibody, IgG4, V domains shown) VH: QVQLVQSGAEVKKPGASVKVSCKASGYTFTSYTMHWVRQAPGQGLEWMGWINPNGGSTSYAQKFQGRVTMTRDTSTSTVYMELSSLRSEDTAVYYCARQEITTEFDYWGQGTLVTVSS VL: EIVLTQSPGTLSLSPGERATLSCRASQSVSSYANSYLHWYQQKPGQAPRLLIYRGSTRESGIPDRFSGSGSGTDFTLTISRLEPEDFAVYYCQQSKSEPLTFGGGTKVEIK gave koff of 7.11e-05

Lab note: MH9 (antibody, IgG4, V domains shown) VH: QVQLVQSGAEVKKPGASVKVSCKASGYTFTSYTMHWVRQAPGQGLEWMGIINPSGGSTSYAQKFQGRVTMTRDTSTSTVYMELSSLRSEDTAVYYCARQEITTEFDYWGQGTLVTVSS VL: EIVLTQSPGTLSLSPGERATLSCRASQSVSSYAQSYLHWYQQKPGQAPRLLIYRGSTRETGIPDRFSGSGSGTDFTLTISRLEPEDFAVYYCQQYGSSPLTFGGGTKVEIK gave koff of 0.00039

Lab note: 09E04 (antibody, IgG4, V domains shown) VH: QVQLVQSGAEVKKPGASVKVSCKASGYIFTSYTMHWVRQAPGQGLEWMGWINPNGGSTSYAQKFQGRVTMTRDTSTSTVYMELSSLRSEDTAVYYCARQEITTEFDYWGQGTLVTVSS VL: EIVLTQSPGTLSLSPGERATLSCRASQSVESYANSYLHWYQQKPGQAPRLLIYRGSTRESGIPDRFSGSGSGTDFTLTISRLEPEDFAVYYCQQYGSEPLTFGGGTKVEIK gave koff of 1.6e-05

Lab note: 04F09 (antibody, IgG4, V domains shown) VH: QVQLVQSGAEVKKPGASVKVSCKASGYIFTSYSMHWVRQAPGQGLEWMGWINPSNGLANYAQKFQGRVTMTRDTSTSTVYMELSSLRSEDTAVYYCARQEITTEFDIWGQGTLVTVSS VL: EIVLTQSPGTLSLSPGERATLSCRASQSVESYAQSYLHWYQQKPGQAPRLLIYRGSTRESGIPDRFSGSGSGTDFTLTISRLEPEDFAVYYCQQSKSDPLTFGGGTKVEIK gave koff of 1.8e-05

Lab note: 04E10 (antibody, IgG4, V domains shown) VH: QVQLVQSGAEVKKPGASVKVSCKASGYIFTSYTMHWVRQAPGQGLEWMGWIKPNNGSASYAQKFQGRVTMTRDTSTSTVYMELSSLRSEDTAVYYCARSEITTEEDYWGQGTLVTVSS VL: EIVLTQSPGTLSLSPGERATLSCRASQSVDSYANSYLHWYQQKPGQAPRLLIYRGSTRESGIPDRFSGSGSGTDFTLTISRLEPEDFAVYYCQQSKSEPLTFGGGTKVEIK gave koff of 5e-05
